Target: h-cGAS (Homo sapiens)
Sequence (Q8N884 whole entry): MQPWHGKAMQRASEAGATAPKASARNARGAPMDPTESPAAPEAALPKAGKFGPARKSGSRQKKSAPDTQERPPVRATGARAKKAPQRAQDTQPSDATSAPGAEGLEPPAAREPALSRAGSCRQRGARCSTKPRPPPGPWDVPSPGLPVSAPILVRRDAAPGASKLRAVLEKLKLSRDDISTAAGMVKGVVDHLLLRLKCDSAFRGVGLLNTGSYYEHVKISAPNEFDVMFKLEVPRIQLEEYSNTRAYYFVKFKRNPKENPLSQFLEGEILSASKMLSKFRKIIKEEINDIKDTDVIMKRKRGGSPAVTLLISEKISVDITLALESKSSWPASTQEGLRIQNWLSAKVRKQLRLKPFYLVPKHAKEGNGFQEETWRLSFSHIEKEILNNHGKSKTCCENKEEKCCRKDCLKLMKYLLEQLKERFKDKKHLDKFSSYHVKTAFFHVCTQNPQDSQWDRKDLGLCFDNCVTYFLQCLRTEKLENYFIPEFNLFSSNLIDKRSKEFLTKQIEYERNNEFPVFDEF
Test: RapidFire mass spectrometry (RF-MS) cGAS activity assay, h-cGAS
Details: h-cGAS IC50, RF-MS; freshly sourced vendor powder
readout-type: log10 IC50 (log10 of the value in µM)
Scale: decimal log of IC50, IC50 in µM.

Look over these answered cases.
[
  {
    "compound": "Cc1ccc(-n2[nH]c(C(=O)Nc3ccnc4ccnn34)cc2=O)cc1",
    "target-or-system": "h-cGAS (Homo sapiens)",
    "log10 IC50": 0.89
  },
  {
    "compound": "O=C(Nc1ccc(Cl)cn1)c1[nH]ncc1[N+](=O)[O-]",
    "target-or-system": "h-cGAS (Homo sapiens)",
    "log10 IC50": -0.01
  },
  {
    "compound": "N#Cc1c(C(F)(F)F)cc(=O)n2c1[nH]c1ccccc12",
    "target-or-system": "h-cGAS (Homo sapiens)",
    "log10 IC50": 0.02
  }
]

Please supply log10 IC50 for each of the following items, keeping them in order.
1. Oc1ccccc1C1=NNC2(CC3CC2C2CCCC32)S1 (stereo not drawn)
2. CCC/N=C\c1c(-c2ccccc2)[nH]n(-c2nc3ccccc3s2)c1=O
3. O=C1NC(=S)S/C1=C\c1ccc(-c2ccccc2C(=O)O)o1
4. Cc1ccc2c(=O)c3ccccc3n(CCCN)c2c1C
5. CNC(=O)CSc1nc(=O)n2nc(C)c(-c3ccccc3)c2[nH]1

Given back:
1. 1.52
2. 1.11
3. 0.58
4. 0.21
5. 0.68
